Source listed as patent US20250011363A1.

- system: acetylcholine receptor (Homo sapiens, UniProt P02708)
- Sequence (P02708 21-457): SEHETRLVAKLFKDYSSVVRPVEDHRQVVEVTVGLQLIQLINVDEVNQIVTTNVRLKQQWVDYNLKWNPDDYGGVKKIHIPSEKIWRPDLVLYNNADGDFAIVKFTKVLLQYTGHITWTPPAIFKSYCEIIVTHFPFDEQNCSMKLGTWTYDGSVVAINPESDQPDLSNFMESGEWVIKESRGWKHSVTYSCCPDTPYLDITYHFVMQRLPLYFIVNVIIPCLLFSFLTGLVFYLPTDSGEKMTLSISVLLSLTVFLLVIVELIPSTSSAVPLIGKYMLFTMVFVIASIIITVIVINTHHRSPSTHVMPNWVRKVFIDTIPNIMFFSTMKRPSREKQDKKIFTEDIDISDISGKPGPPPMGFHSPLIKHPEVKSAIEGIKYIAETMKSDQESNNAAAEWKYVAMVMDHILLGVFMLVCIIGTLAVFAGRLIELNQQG
- measurementDescription: SPR binding affinity (RU) of optimized 5mer/6mer/7mer peptides, Examples 6-7
- conditions: SPR, peptides tested at 10 μM; 6mer-1 Top sequence
measurementType: Binding affinity (Ru)
Numbers only, in Ru.

Known results for substances:
substance: 6mer-1-477 (KRQQTK)
unitsText: Ru
Binding affinity: 145
--
substance: 6mer-1-455 (RRVFYK)
unitsText: Ru
Binding affinity: 126
--
substance: 6mer-1-498 (RKRQQK)
unitsText: Ru
Binding affinity: 139
--
substance: 6mer-1-435 (RKWRCK)
unitsText: Ru
Binding affinity: 135
--
substance: 6mer-1-561 (RKVYLK)
unitsText: Ru
Binding affinity: 131
--
substance: 6mer-1-597 (KRGFYK)
unitsText: Ru
Binding affinity: 148

Report Binding affinity for each item below.
1. 6mer-1-519 (KRRQCK)
2. 6mer-1-570 (RKRLRK)
3. 6mer-1-476 (KRRRQK)
4. 6mer-1-543 (RRSVCK)
5. 6mer-1-422 (KRVRQR)
6. 6mer-1-459 (RRWVYK)
7. 6mer-1-432 (RKGIQK)

147
122
154
145
154
131
139

Report Binding affinity for each item below.
1. 6mer-1-503 (KRRLCK)
2. 6mer-1-420 (KKGQYK)
3. 6mer-1-490 (KKLFRR)
4. 6mer-1-445 (KRVRLR)
5. 6mer-1-538 (RRSQCK)
6. 6mer-1-525 (RRQLRR)
7. 6mer-1-425 (RKGVQK)

151
148
133
145
142
139
131

Report Binding affinity for each item below.
1. 6mer-1-536 (RRWFRK)
2. 6mer-1-412 (RKSILK)
3. 6mer-1-596 (RKGVLR)
4. 6mer-1-489 (KKVITK)
5. 6mer-1-521 (RKVISR)
6. 6mer-1-600 (KRGYCR)

1: 151; 2: 139; 3: 148; 4: 148; 5: 128; 6: 139

Report Binding affinity for each item below.
1. 6mer-1-579 (KRSVRK)
2. 6mer-1-464 (RRQRLK)
3. 6mer-1-539 (KRGIRK)
4. 6mer-1-578 (RKGQYK)

1. 148
2. 131
3. 148
4. 139

Report Binding affinity for each item below.
1. 6mer-1-471 (KKWRCK)
2. 6mer-1-585 (RKSRQK)
3. 6mer-1-568 (KRWQQK)
4. 6mer-1-427 (KRWVLR)
5. 6mer-1-481 (KRWRCK)

1. 123
2. 144
3. 147
4. 147
5. 133
